Below are Ki measurements against Adenosine receptor A2a (Homo sapiens) drawn from the literature.
Sequence (P29274 whole entry): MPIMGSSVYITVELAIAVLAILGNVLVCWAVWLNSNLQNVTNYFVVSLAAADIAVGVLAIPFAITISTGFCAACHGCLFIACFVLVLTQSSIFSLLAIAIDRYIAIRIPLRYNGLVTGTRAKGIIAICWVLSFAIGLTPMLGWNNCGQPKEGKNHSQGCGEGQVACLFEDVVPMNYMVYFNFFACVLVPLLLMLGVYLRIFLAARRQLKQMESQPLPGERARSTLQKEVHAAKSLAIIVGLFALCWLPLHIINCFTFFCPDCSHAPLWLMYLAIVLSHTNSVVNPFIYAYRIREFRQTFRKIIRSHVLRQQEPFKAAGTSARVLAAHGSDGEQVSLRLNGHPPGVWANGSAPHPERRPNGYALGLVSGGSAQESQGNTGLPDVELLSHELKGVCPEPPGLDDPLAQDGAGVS
Lab note - cut at 600 nM for Ki: met if strictly below, not met if not.

Task: Find out if reported Ki for O=c1c2[nH]nnc2nc2n1CCCS2 is less than 600 nM
Result: not met

Task: Bench note: check whether CC1CSc2nc3nn[nH]c3c(=O)n21 (centres undefined) shows Ki below 600 nM
Result: not met

Task: Identify whether the molecule OC[C@H]1CC[C@H](n2cnc3c(NC4CCCCC4)ncnc32)O1 records Ki below 600 nM.
Result: not met

Task: Does CCn1c(=O)c2c(ncn2C)n(C)c1=O have Ki strictly under 600 nM?
Result: not met

Task: Hi there! Is Ki for CCN(CC)CCNC(=O)COc1cc(-c2nc3c([nH]2)c(=O)n(C)c(=O)n3C)ccc1OC below 600 nM, do you know?
Result: met

###

This section presents pKi values reported for Adenosine receptor A2a (Homo sapiens, UniProt P29274) in the literature.
pKi: −log10 of the molar value.
I would appreciate it if you labelled entries MET when pKi is 7 or higher, otherwise NOT MET.

Reference set (6 entries):
CCCn1c(=O)c2c(nc3cc(OC)ccn32)n(CCCNC(=O)c2ccc(S(C)(=O)=O)cc2)c1=O = NOT MET
Cc1cc(-c2sc(NC(=O)N3CC4(COC4)C3)nc2-c2cccc(C#N)c2C)cc(C)n1 = MET
Cc1cc(-c2c(-c3ccccc3)nc(N)n3c(=O)n(Cc4ccc(F)cn4)nc23)cc(C)c1O = MET
Cc1cc(-c2c(-c3ccccc3)nc(N)n3c(=O)n(Cc4ncc[nH]4)nc23)cc(C)n1 = MET
Nc1ccnc2c1ncn2[C@@H]1O[C@H](CO)[C@@H](O)[C@H]1O = NOT MET
Fc1ccccc1-c1nc(Nc2cccnc2)nnc1-c1ccnc(C(F)(F)F)c1 = NOT MET

Task: Does the reported pKi for Cn1c(=O)c2[nH]c(-c3ccc(N)cc3)nc2n(C)c1=O fall at or above the 7 mark?
Result: NOT MET

Task: Test whether the compound CCNC(=O)C1OC(n2cnc3c(N)nc(C#CCC(C)O)nc32)C(O)C1O (centres undefined) records pKi of 7 or higher.
Result: MET

Task: # check: pKi of CCCCn1c(=O)c2c(ncn2C)n(C)c1=O is greater than or equal to 7
Result: NOT MET

###

Target or system Adenosine receptor A2a (Homo sapiens); metric Ki; compiled from varied reports.
Give bare numbers, in µM.

CCCn1c(=O)c2nc(-c3ccc(OCC(=O)O)cc3)[nH]c2n(Cc2ccc(N)c(I)c2)c1=O = 0.095

// each listed compound needs a value for Ki
1. CCNC(=O)C1OC(n2cnc3c(N)nc(C#Cc4ccc(CCC(=O)O)cc4)nc32)C(O)C1O (stereo not given)
2. COc1cc(CN=Nc2ncnc3sc4c(c23)CCCC4)ccc1O
3. CCCCC#Cc1nc(N)c2ncn([C@@H]3O[C@H](C(=O)NCC)[C@H](O)C3O)c2n1 (stereo not given in full)

Result:
1: 2.2; 2: 5.01; 3: 0.0064
